Source: ChEMBL document CHEMBL1151556

Species on record: Homo sapiens
Experiment: Compound was evaluated for the inhibition of human LDL oxidation mediated by copper(II).
Type: functional
REPORTED PROPERTY: IC50 (µM)
Respond numerically; units are µM and should not be typed.

stdin: Recorded IC50 for VITAMIN E , please?
stdout: 10

---

Species: Homo sapiens
Assay: Compound was evaluated for the inhibition of human LDL oxidation mediated by copper(II).
Type: functional
Conditions: Homo sapiens
pIC50: −log10 of the molar value.
If the reported pIC50 equals or exceeds 5, assign 1 (yes). If not, assign 0 (no).

stdin: Is the recorded value of pIC50 equal to or greater than 5 for this molecule? `CCN(C[Si](C)(C)c1ccc(C(F)(F)F)cc1)c1ccccc1`
stdout: 0 (no)

stdin: Now consider `CCN(C[Si](C)(C)c1ccccc1)c1ccc(C(F)(F)F)cc1` and answer again.
stdout: 0 (no)

stdin: Now consider `CCN(C[Si](C)(C)c1ccccc1)c1ccccc1` and answer again.
stdout: 0 (no)

stdin: Now consider `CC(C)(Sc1cc(C(C)(C)C)c(O)c(C(C)(C)C)c1)Sc1cc(C(C)(C)C)c(O)c(C(C)(C)C)c1` and answer again.
stdout: 1 (yes)

stdin: Now consider `COc1ccc(NC[Si](C)(C)c2ccccc2)cc1` and answer again.
stdout: 1 (yes)

stdin: Now consider `CC(C)(CNc1ccccc1)c1ccccc1` and answer again.
stdout: 0 (no)
